Assay: Liver Microsome Stability Assay (monkey)
Details: monkey liver microsomes, with NADPH, 1.0 uM compound
Measurement label: Liver Microsome Stability (Multiple Species): Monkey - % Remaining after 30 min w/NADPH (%)
Answers are plain numbers, in %.

>>> value_reported("O=C(CO)Nc1ccc(N2CCC[C@@H]2c2csc(NC(=O)c3cccn3Cc3ccnc(F)c3)n2)cc1")
0.94

Provide reported Liver Microsome Stability (Multiple Species): Monkey - % Remaining after 30 min w/NADPH for each item, in the same order as listed.
1. CNCc1ccc(N2CCC[C@@H]2c2csc(NC(=O)c3cccn3Cc3ccncc3)n2)cc1
2. CNC(=O)N1CC(Oc2ccc(N3CCC[C@@H]3c3csc(NC(=O)c4cccn4Cc4ccnc(F)c4)n3)cc2)C1
3. CC(=O)N1CCC(Oc2ccc(N3CCC[C@@H]3c3csc(NC(=O)c4cccn4Cc4ccnc(F)c4)n3)cn2)CC1
4. N#CC[C@@H]1CC[C@H]1Cn1cccc1C(=O)Nc1nc([C@H]2CCCN2c2ccccc2)cs1

Output line:
[0.94, 10.1, 0.17, 0.08]

Provide each entry's Liver Microsome Stability (Multiple Species): Monkey - % Remaining after 30 min w/NADPH from the list below.
1. COCCn1cnc(/C=C/c2csc(NC(=O)c3cccn3Cc3ccncc3)n2)c1
2. [2H]c1cc([2H])cc(N2CCC[C@@H]2c2csc(NC(=O)c3cccn3Cc3ccnc(F)c3)n2)c1

Output line:
0.27
0.88

---

Test system: IL-2-FL/Gaussia Luciferase
Test: Dox Induced IL2-FL-Gluc Assay
Type: cell-based
Details: ratio of IL2FLGluc IC50 to PD1ssGluc IC50
Measurement label: 24 hr Dox Inducible IL2FLGluc 293FRT/TO: IL2/PD1
Give bare numbers.

>>> value_reported("COCc1ccc(N2CCC[C@@H]2c2csc(NC(=O)c3cccn3Cc3ccncc3)n2)cc1")
2.2

Shifting focus to the compound that follows.
Input line: Quote IL-2-FL/Gaussia Luciferase 24 hr Dox Inducible IL2FLGluc 293FRT/TO: IL2/PD1 for entry CC(=O)N[C@H](C)c1ccc(N2CCC[C@@H]2c2csc(NC(=O)c3cccn3Cc3ccnc(F)c3)n2)cc1 .
Output line: 2.3

---

Tested on: multiple myeloma cell line NCI-H929
Assay: H929 Cell Viability Assay
Format: cell-based, human
Details: Homo sapiens, NCI-H929, 48 h, NCI-H929 cells, Celltiter-Glo
Measurement label: EC50 (µM)
Numbers only, in µM.

Examples with their reported EC50 follow.
>>> value_reported("CC(=O)N1CC(OC(=O)Nc2ccc(N3CCC[C@@H]3c3csc(NC(=O)c4cccn4Cc4ccnc(F)c4)n3)cc2)C1")
0.0704
>>> value_reported("C/C(=C\\c1csc(NC(=O)c2cccn2Cc2ccncc2)n1)c1ccc(OC(F)(F)F)cn1")
8.09
>>> value_reported("CC(=O)NCCOc1ccc(N2CCC[C@@H]2c2csc(NC(=O)c3cccn3Cc3ccnc(F)c3)n2)cc1")
0.447
>>> value_reported("O=C(Nc1nc([C@H]2CCCN2c2ccccc2)cs1)c1cccn1CCCc1c[nH]nn1")
23.9
>>> value_reported("CN(C)CCOc1ccc(N2CCC[C@@H]2c2csc(NC(=O)c3cccn3Cc3ccnc(F)c3)n2)cc1")
3.17
>>> value_reported("CC(=O)N1CC=C(Oc2ccc(N3CCC[C@@H]3c3csc(NC(=O)c4cccn4Cc4ccnc(F)c4)n3)cc2)CC1")
5.66
>>> value_reported("CC(=O)N1CCC(Oc2ccc(N3CCC[C@@H]3c3csc(NC(=O)c4cccn4Cc4ccnc(F)c4)n3)cc2C#N)CC1")
1.13
>>> value_reported("CNCc1ccc(N2CCC[C@@H]2c2csc(NC(=O)c3cccn3Cc3ccncc3)n2)cc1")
9.86
>>> value_reported("C[C@@H](N)c1ccc(N2CCC[C@@H]2c2csc(NC(=O)c3cccn3Cc3ccnc(F)c3)n2)cc1")
3.77
>>> value_reported("O=C(Nc1nc([C@H]2CCCN2c2ccc(CO)cc2)cs1)c1cccn1Cc1ccncc1")
0.5

Batch: EC50 for all items listed.
1. Cc1ccc(N2CCC[C@@H]2c2csc(NC(=O)c3cccn3CC3CCOCC3)n2)cc1
2. CS(=O)(=O)N1CC(Oc2ccc(N3CCC[C@@H]3c3csc(NC(=O)c4cccn4Cc4ccnc(F)c4)n3)cc2)C1
3. O=C(Nc1nc([C@H]2CCCN2c2ccc(F)cc2)cs1)c1cccn1Cc1ccncc1
4. CC(=O)Nc1ccc(N2CCC[C@@H]2c2csc(NC(=O)c3cccn3Cc3ccncc3)n2)cc1

Output line:
1.9
2.52
0.412
0.079
